Provide the reported viability at 10 µM of each item.
- Tested on: TSGH-8301 (Urinary Bladder Carcinoma)
- assay-method-text: Cell viability analysis, bladder cancer TSGH-8301
- Type: cell-based, human
- condition-label: Homo sapiens, 72 h, read-out: The results of antibiotic drug inhibiting cancer cell lines (cell viability analysis), TSGH-8301, TSGH-8301; repeated experiment
Counter-ions that a name gives are not always drawn.
Dear colleague, please return just the value in %, with no unit written.

Exam item: Give viability at 10 µM for the following molecule: Cc1ncc([N+](=O)[O-])n1CCO
Marked response: 92.4

Exam item: // Input: CC(C)(C)C(=O)OCOP(=O)(COCCn1cnc2c(N)ncnc21)OCOC(=O)C(C)(C)C . Output its viability at 10 µM only.
Marked response: 70

Exam item: Identify measured viability at 10 µM associated with Cc1cc2c(s1)Nc1ccccc1N=C2N1CCN(C)CC1 [Olanzapine (Zyprexa), Olanzapine]
Marked response: 152

Exam item: Supply reported viability at 10 µM belonging to this molecule: CN(C)CCC[C@@]1(c2ccc(F)cc2)OCc2cc(C#N)ccc21 [Escitalopram oxalate]
Marked response: 135

Exam item: Give reported viability at 10 µM value for Cc1noc(NS(=O)(=O)c2ccc(N)cc2)c1C
Marked response: 105

---

- System: A375 (Amelanotic Melanoma)
- assay-method-text: Cell viability analysis, skin cancer A375
- Type: cell-based, human
- condition-label: Homo sapiens, A-375; drug 10 μM, 72 hours, WST-1, OD450 nm; read-out: cell viability (survival rate), A375
Where a name gives a salt, the structure may show the parent alone.
Threshold 80%. viability at 10 µM below it: yes. viability at 10 µM at it or above: no.

Exam item: Determine if COc1cccc(N(C)C(=S)Oc2ccc3c(c2)CCCC3)n1 [Liranaftate] shows viability at 10 µM strictly lower than 80%.
Marked response: no

Exam item: Is it true that viability at 10 µM reported for O=C([O-])[C@H](O)[C@@H](O)[C@H](O)[C@H](O)CO.[Na+] [Sodium Gluconate] is less than 80%?
Marked response: no

Exam item: Is viability at 10 µM strictly under 80% for the entry Clc1ccc(C(Cn2ccnc2)OCc2c(Cl)cccc2Cl)c(Cl)c1 (centres unmarked) [Isoconazole nitrate (Travogen), Isoconazole nitrate] ?
Marked response: no

Exam item: viability at 10 µM strictly < 80% for this compound? CC(C)OC(=O)OCOP(=O)(CO[C@H](C)Cn1cnc2c(N)ncnc21)OCOC(=O)OC(C)C [Tenofovir Disoproxil Fumarate]
Marked response: yes

Exam item: Would you kindly verify if viability at 10 µM of O=C(O)c1ccccc1 [Benzoic acid] is strictly less than 80%?
Marked response: yes

Exam item: Dear reviewer, please state whether CN(C)C(=O)C(CCN1CCC(O)(c2ccc(Cl)cc2)CC1)(c1ccccc1)c1ccccc1 [Loperamide hydrochloride] has viability at 10 µM strictly beneath 80%.
Marked response: yes

Exam item: Field: below-cutoff. Rule: recorded viability at 10 µM strictly less than 80%. Subject: c1ccc2c(c1)sc1ccccc12 [Dibenzothiophene]
Marked response: yes

---

- Test system: AGS (Gastric Adenocarcinoma)
- assay-method-text: Cell viability analysis, gastric cancer AGS
- Type: cell-based, human
- condition-label: Homo sapiens, 72 h, read-out: The results of antibiotic drug inhibiting cancer cell lines (cell viability analysis), AGS; repeated experiment
Structures can show the parent of a compound that is named as a salt.
Kindly state viability at 10 µM for each of the entries shown.
Please respond with the number in % and leave the unit unwritten.

Exam item: GET viability at 10 µM | system: AGS (Gastric Adenocarcinoma) | item: Cc1cc2c(s1)Nc1ccccc1N=C2N1CCN(C)CC1 [Olanzapine (Zyprexa), Olanzapine]
Marked response: 122

Exam item: Specify viability at 10 µM for CN(C)c1cc(NC(=O)CNC(C)(C)C)c(O)c2c1C[C@H]1C[C@H]3[C@H](N(C)C)C(O)=C(C(N)=O)C(=O)[C@@]3(O)C(O)=C1C2=O [Tigecycline] , system AGS (Gastric Adenocarcinoma).
Marked response: 90.6

Exam item: GET viability at 10 µM where system = AGS (Gastric Adenocarcinoma) and item = N=C(N)c1ccc(OCCCCCOc2ccc(C(=N)N)cc2)cc1 [Pentamidine]
Marked response: 92.4

Exam item: Write down measured viability at 10 µM (AGS (Gastric Adenocarcinoma)) for this compound. CN(C)[C@@H]1C(O)=C(C(N)=O)C(=O)[C@@]2(O)C(O)=C3C(=O)c4c(O)cccc4[C@@](C)(O)[C@H]3C[C@@H]12 [Tetracycline HCl]
Marked response: 94

Exam item: Provide viability at 10 µM, tested on AGS (Gastric Adenocarcinoma), for C=C1[C@H](CO)[C@@H](O)C[C@@H]1n1cnc2c(=O)[nH]c(N)nc21 [Entecavir hydrate] .
Marked response: 88.7

Exam item: Write down the reported viability at 10 µM (system: AGS (Gastric Adenocarcinoma)) of CC1(C)S[C@@H]2[C@H](NC(=O)Cc3ccccc3)C(=O)N2[C@H]1C(=O)O [Benzylpenicillin sodium]
Marked response: 110

Exam item: # lookup: AGS (Gastric Adenocarcinoma) viability at 10 µM, key = CC[C@H]1OC(=O)[C@H](C)[C@@H](O[C@H]2C[C@@](C)(OC)[C@@H](O)[C@H](C)O2)[C@H](C)[C@@H](O[C@@H]2O[C@H](C)C[C@H](N(C)C)[C@H]2O)[C@](C)(O)C[C@@H](C)CN(C)[C@H](C)[C@@H](O)[C@]1(C)O [Azithromycin Dihydrate]
Marked response: 77.2

Exam item: Enter recorded viability at 10 µM with AGS (Gastric Adenocarcinoma) for COc1cc(NC(C)CCCN)c2ncccc2c1 (centres unmarked) [Primaquine Diphosphate] here.
Marked response: 37.1

Exam item: Lab note: record viability at 10 µM of CCOc1ccc(NC(C)=O)cc1 [Phenacetin] tested on AGS (Gastric Adenocarcinoma).
Marked response: 122

Exam item: Enter recorded viability at 10 µM with AGS (Gastric Adenocarcinoma) for CO[C@H]1/C=C/O[C@@]2(C)Oc3c(C)c(O)c4c(O)c(c(/C=N/N5CCN(C6CCCC6)CC5)c(O)c4c3C2=O)NC(=O)/C(C)=C\C=C\[C@H](C)[C@H](O)[C@@H](C)[C@@H](O)[C@@H](C)[C@H](OC(C)=O)[C@@H]1C [Rifapentine (Priftin), Rifapentine] here.
Marked response: 76.4

Exam item: Find the measured viability at 10 µM of CN(C)[C@@H]1C(O)=C(C(N)=O)C(=O)[C@@]2(O)C(O)=C3C(=O)c4c(O)ccc(Cl)c4[C@@](C)(O)[C@H]3C[C@@H]12 [Chlortetracycline HCl] with AGS (Gastric Adenocarcinoma) as test system.
Marked response: 99.9

Exam item: Return reported viability at 10 µM for target or system AGS (Gastric Adenocarcinoma), item Clc1ccc(C(Cn2ccnc2)OCc2ccsc2Cl)c(Cl)c1 (centres unmarked) [Tioconazole] .
Marked response: 120

Exam item: Find viability at 10 µM for CC(NC(C)(C)C)C(=O)c1cccc(Cl)c1 (centres unmarked) [Amfebutamone (Bupropion), Amfebutamone] on AGS (Gastric Adenocarcinoma) and write it down.
Marked response: 117

Exam item: Write viability at 10 µM of CC(C)(C)C(=O)OCOP(=O)(COCCn1cnc2c(N)ncnc21)OCOC(=O)C(C)(C)C [Adefovir Dipivoxil (Preveon, Hepsera), Adefovir Dipivoxil] ; system used: AGS (Gastric Adenocarcinoma)
Marked response: 78

---

- Tested on: Hep3B (hepatocellular carcinoma)
- assay-method-text: Cell viability analysis, hepatic cancer Hep3B
- Format: cell-based, human
- condition-label: Homo sapiens, 72 h; Hep3B; repeated experiment; read-out: The results of antibiotic drug inhibiting cancer cell lines (cell viability analysis), Hep3B
Where a name gives a salt, the structure may show the parent alone.
reported-property: viability at 10 µM (%)
Just the number please, in %, no unit attached.

Exam item: Tell me measured viability at 10 µM for COC(=O)Nc1nc2ccc([S+]([O-])c3ccccc3)cc2[nH]1 (stereo not drawn) please.
Marked response: 107

Exam item: Read the entry CCc1cc2c(cc1CC)CC(NC[C@H](O)c1ccc(O)c3[nH]c(=O)ccc13)C2 [Indacaterol Maleate] and write its reported viability at 10 µM.
Marked response: 97.6

Exam item: Supply reported viability at 10 µM belonging to this compound: CC(C)c1nc(N(C)S(C)(=O)=O)nc(-c2ccc(F)cc2)c1/C=C/[C@@H](O)C[C@@H](O)CC(=O)O
Marked response: 109

Exam item: Look up and state reported viability at 10 µM for CC(C)CN(C[C@@H](O)[C@H](Cc1ccccc1)NC(=O)O[C@H]1CCOC1)S(=O)(=O)c1ccc(N)cc1
Marked response: 95.2

Exam item: Please report viability at 10 µM for the following compound: CN(C)CCC=C1c2ccccc2CCc2ccccc21 [Amitriptyline HCl]
Marked response: 124

Exam item: Given Cc1ccc2c(Cl)cc(Cl)c(O)c2n1 , respond with its viability at 10 µM.
Marked response: 105

---

- System: MCF7 (Mammary Gland, Adenocarcinoma)
- assay-method-text: Cell viability analysis, breast cancer MCF7
- Format: cell-based, human
- condition-label: Homo sapiens, MCF7; drug 10 μM, 72 hours, WST-1, OD450 nm; read-out: cell viability (survival rate), MCF7
Assign labels as follows, please: 1 for viability at 10 µM below 60%; 0 for viability at 10 µM equal to or exceeding 60%.

Exam item: Is the reported viability at 10 µM for O=C(Nc1ccccc1)c1ccccc1O [Salicylanilide] strictly below 60%?
Marked response: 0

Exam item: # check: viability at 10 µM < 60% for CCC[S+]([O-])c1ccc2[nH]c(NC(=O)OC)nc2c1 (centres unmarked) [Albendazole Oxide (Ricobendazole), Albendazole Oxide]
Marked response: 0

Exam item: Is viability at 10 µM of O=C(O)c1ccccc1 strictly below 60%?
Marked response: 1

Exam item: Does the reported viability at 10 µM of the following compound sit strictly below 60%? CCC1(C)CC(=O)NC(=O)C1 [Bemegride]
Marked response: 0
